target of assay: T1, CD3 epsilon homodimer protein (UniProt P07766 23-126)
T1 construct: also called CD3 (CD3 epsilon)
T1 sequence (P07766 23-126): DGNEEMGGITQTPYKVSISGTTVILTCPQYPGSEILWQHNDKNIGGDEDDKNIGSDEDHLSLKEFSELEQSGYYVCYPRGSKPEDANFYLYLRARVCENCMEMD
test description: SPR Biacore T200, CD3e homodimer on chip, vs unaltered GLS3000 antibody
Use 0.5 as the dividing line for ratio of amounts bound (Z=Y/X), with the line itself on the YES side and lower values as NO.

binder: GLS3000 L33I (antibody, name in Kabat numbering, V domains shown, one-arm IgG as m2) VH: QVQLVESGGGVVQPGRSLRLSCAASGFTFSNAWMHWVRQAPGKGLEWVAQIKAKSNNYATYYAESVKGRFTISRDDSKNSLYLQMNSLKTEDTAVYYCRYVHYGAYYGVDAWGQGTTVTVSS VL: DIVMTQSPLSLPVTPGEPASISCRSSQSLVHSNRNTYIHWYQQKPGQAPRLLIYKVSNRFSGVPDRFSGSGSGTDFTLKISRVEAEDVGVYYCGQGTQVPYTFGQGTKLEIK
class: YES

binder: GLS3000 H34V (antibody, name in Kabat numbering, V domains shown, one-arm IgG as m2) VH: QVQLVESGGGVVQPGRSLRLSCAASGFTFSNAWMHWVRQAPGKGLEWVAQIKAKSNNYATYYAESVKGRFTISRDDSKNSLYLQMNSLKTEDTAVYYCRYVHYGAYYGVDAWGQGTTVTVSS VL: DIVMTQSPLSLPVTPGEPASISCRSSQSLVHSNRNTYLVWYQQKPGQAPRLLIYKVSNRFSGVPDRFSGSGSGTDFTLKISRVEAEDVGVYYCGQGTQVPYTFGQGTKLEIK
class: YES

binder: GLS3000 L27bF (antibody, name in Kabat numbering, V domains shown, one-arm IgG as m2) VH: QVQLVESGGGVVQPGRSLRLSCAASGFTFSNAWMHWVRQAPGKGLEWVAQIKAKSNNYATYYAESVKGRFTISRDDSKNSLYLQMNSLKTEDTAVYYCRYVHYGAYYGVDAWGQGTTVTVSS VL: DIVMTQSPLSLPVTPGEPASISCRSSQSFVHSNRNTYLHWYQQKPGQAPRLLIYKVSNRFSGVPDRFSGSGSGTDFTLKISRVEAEDVGVYYCGQGTQVPYTFGQGTKLEIK
class: NO

binder: GLS3000 V51E (antibody, name in Kabat numbering, V domains shown, one-arm IgG as m2) VH: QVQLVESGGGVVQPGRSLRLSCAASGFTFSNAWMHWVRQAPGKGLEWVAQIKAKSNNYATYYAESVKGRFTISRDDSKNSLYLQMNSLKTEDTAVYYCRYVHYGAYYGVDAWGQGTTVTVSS VL: DIVMTQSPLSLPVTPGEPASISCRSSQSLVHSNRNTYLHWYQQKPGQAPRLLIYKESNRFSGVPDRFSGSGSGTDFTLKISRVEAEDVGVYYCGQGTQVPYTFGQGTKLEIK
class: YES

-- ask Evaluate GLS3000 N28F (antibody, name in Kabat numbering, V domains shown, one-arm IgG as m2) VH: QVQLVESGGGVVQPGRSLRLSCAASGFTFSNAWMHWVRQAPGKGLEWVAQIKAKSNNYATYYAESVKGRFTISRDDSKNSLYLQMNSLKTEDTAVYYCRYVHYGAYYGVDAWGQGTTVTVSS VL: DIVMTQSPLSLPVTPGEPASISCRSSQSLVHSFRNTYLHWYQQKPGQAPRLLIYKVSNRFSGVPDRFSGSGSGTDFTLKISRVEAEDVGVYYCGQGTQVPYTFGQGTKLEIK : ratio of amounts bound (Z=Y/X) at minimum 0.5?
-- reply NO

-- ask Evaluate GLS3000 S25D (antibody, name in Kabat numbering, V domains shown, one-arm IgG as m2) VH: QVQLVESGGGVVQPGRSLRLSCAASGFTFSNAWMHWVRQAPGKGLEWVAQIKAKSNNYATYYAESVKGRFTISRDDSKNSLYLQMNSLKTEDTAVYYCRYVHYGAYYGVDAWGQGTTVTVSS VL: DIVMTQSPLSLPVTPGEPASISCRDSQSLVHSNRNTYLHWYQQKPGQAPRLLIYKVSNRFSGVPDRFSGSGSGTDFTLKISRVEAEDVGVYYCGQGTQVPYTFGQGTKLEIK : ratio of amounts bound (Z=Y/X) at minimum 0.5?
-- reply NO

-- ask Evaluate GLS3000 Q90P (antibody, name in Kabat numbering, V domains shown, one-arm IgG as m2) VH: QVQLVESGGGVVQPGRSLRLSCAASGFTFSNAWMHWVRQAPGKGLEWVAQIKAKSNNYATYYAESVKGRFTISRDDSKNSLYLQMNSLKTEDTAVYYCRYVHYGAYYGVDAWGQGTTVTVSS VL: DIVMTQSPLSLPVTPGEPASISCRSSQSLVHSNRNTYLHWYQQKPGQAPRLLIYKVSNRFSGVPDRFSGSGSGTDFTLKISRVEAEDVGVYYCGPGTQVPYTFGQGTKLEIK : ratio of amounts bound (Z=Y/X) at minimum 0.5?
-- reply NO

-- ask Evaluate GLS3000 V51G (antibody, name in Kabat numbering, V domains shown, one-arm IgG as m2) VH: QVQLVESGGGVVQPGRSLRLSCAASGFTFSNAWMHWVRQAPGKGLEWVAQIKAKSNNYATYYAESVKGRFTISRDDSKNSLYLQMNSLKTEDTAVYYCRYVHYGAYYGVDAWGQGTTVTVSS VL: DIVMTQSPLSLPVTPGEPASISCRSSQSLVHSNRNTYLHWYQQKPGQAPRLLIYKGSNRFSGVPDRFSGSGSGTDFTLKISRVEAEDVGVYYCGQGTQVPYTFGQGTKLEIK : ratio of amounts bound (Z=Y/X) at minimum 0.5?
-- reply YES

-- ask Evaluate GLS3000 S56R (antibody, name in Kabat numbering, V domains shown, one-arm IgG as m2) VH: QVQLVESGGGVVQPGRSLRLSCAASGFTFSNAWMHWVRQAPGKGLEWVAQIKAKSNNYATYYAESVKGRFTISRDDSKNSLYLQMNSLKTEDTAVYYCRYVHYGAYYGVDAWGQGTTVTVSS VL: DIVMTQSPLSLPVTPGEPASISCRSSQSLVHSNRNTYLHWYQQKPGQAPRLLIYKVSNRFRGVPDRFSGSGSGTDFTLKISRVEAEDVGVYYCGQGTQVPYTFGQGTKLEIK : ratio of amounts bound (Z=Y/X) at minimum 0.5?
-- reply YES

-- ask Evaluate GLS3000 G89D (antibody, name in Kabat numbering, V domains shown, one-arm IgG as m2) VH: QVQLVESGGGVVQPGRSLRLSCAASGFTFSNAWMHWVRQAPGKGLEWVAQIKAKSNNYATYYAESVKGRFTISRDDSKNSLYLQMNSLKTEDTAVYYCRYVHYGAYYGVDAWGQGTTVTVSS VL: DIVMTQSPLSLPVTPGEPASISCRSSQSLVHSNRNTYLHWYQQKPGQAPRLLIYKVSNRFSGVPDRFSGSGSGTDFTLKISRVEAEDVGVYYCDQGTQVPYTFGQGTKLEIK : ratio of amounts bound (Z=Y/X) at minimum 0.5?
-- reply NO
